B1: HDV Ribozyme (parent)
chain: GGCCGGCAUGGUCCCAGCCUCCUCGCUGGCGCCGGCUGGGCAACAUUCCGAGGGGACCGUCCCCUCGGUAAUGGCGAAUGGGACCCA

Variants of: B1
MEASUREMENT_NOTES: self-cleavage, relative activity (ratio to wild type); higher = more cleavage; co-transcriptional
Short version: self-cleavage at least 0.3 is true, less is false.

API: above_or_equal(metric=self-cleavage, cutoff=0.3) for item GGCCGGCAUGGUCCCAGCCUCCUCGCUGGCGCCGGCUGGGCAACAUUCAGAGGGGACCGUCCCCUCGGUAAAGGCGAAUGGGACCCA [C49A U72A]
false

I'd appreciate it if you could say whether GGCCGGCAUGGUCCCAGCCUACUCGCUGGCGCCGGCUGGGCAACAUUCCGAGGGGACCGUCCCUUCGGUAAUGGCGAAUGGGACCCA [C21A C64U] has self-cleavage at least equal to 0.3.
false

Hi team, for GGCCGGCAUGGUCCCAGCCUCCUCGCUGGCGCCGGCUGGGCAACAUUCCGAGGGGACCGGCCCAUCGGUAAUGGCGAAUGGGACCCA [U60G C64A] , is the recorded self-cleavage at or above 0.3?
true

Item GGCCGGCAUGGUCCAAGCCUCCUCGCUGGCGCCGGCUGGGCCACAUUCCGAGGGGACCGUCCCCUCGGUAAUGGCGAAUGGGACCCA [C15A A42C] with self-cleavage of 0.3 or above?
false

Decide: self-cleavage of GGCCGGCAUGGUCCCAGCCUCCUCGCUGGCGCCGGCUGGGCAACAUUCCGAGGGGACCGUCCCCUCGGUCAUGGCGACUGGGACCCA [A70C A78C] >= 0.3?
false

self-cleavage >= 0.3 for GGCCGGCAUCGUCCCAGCCUUCUCGCUGGCGCCGGCUGGGCAACAUUCCGAGGGGACCGUCCCCUCGGUAAUGGCGAAUGGGACCCA [G10C C21U] ?
false

Does the variant GGCCGGCAUGGUCCCAGCCUCCUCGCUGGCGCCGGCUGGGCAAUAUUCCGAGGGGACCGUCCCCUCGGUAAUGGCGAAUGGGACCCU [C44U A87U] have recorded self-cleavage that is 0.3 or more?
true

Answer whether self-cleavage of GGCCGGCAUGGUACCAGCCUCCUCGCUGGCGCCGGCAGGGCAACAUUCCGAGGGGACCGUCCCCUCGGUAAUGGCGAAUGGGACCCA [C13A U37A] is greater than or equal to 0.3.
false

In plain terms: is recorded self-cleavage at least 0.3 for GGCCGGCAUGGUCCCAGCCUCCUCGCUGGCGCCGGCUGGGCAACAUUCCGACGGGAGCGUCCCCUCGGUAAUGGCGAAUGGGACCCA [G52C C57G] ?
true

State whether the measured self-cleavage reaches 0.3, counting equality as reaching it, for GGCCGGCAUGGUCCCAGCCUCCUCGCUGGCGCCGGCUGGGCAACAUUCCGAGGGGACCAUCGCCUCGGUAAUGGCGAAUGGGACCCA [G59A C62G]
true

Answer whether self-cleavage of GGACGGCAUCGUCCCAGCCUCCUCGCUGGCGCCGGCUGGGCAACAUUCCGAGGGGACCGUCCCCUCGGUAAUGGCGAAUGGGACCCA [C3A G10C] is greater than or equal to 0.3.
true

Form field: self-cleavage at least 0.3? Entry: GGCCGGCAUGGUCCCAGCCUCCUCGCUGGCGCCGGCUGGGCAACAUUCCGAGGGGACCAUCCCCUCGGUAAUGGCGAAUGGAACCCA [G59A G82A]
true

I'd appreciate it if you could say whether GGCCGGCAUGGUCCCAGCCUCCUCGCUGGCGCCGGCUGGGCAACAUUCCGACGAGACCGUCCCCUCGGUAAUGGCGAAUGGGACCCA [G52C G54A] has self-cleavage at least equal to 0.3.
true

Is self-cleavage for GCCCGGCAUGGUCCCAGCCUCCUCGCUGGCGCCGGCUGGGCAACAUUCCGAGGGGACCGUCCCCUCGGUAAUGGCGAAUGGGACUCA [G2C C85U] at or above 0.3?
false

Given the entry GUCCGGCAUGGUCCCAGCCUCCUCGCUUGCGCCGGCUGGGCAACAUUCCGAGGGGACCGUCCCCUCGGUAAUGGCGAAUGGGACCCA [G2U G28U] , answer whether its self-cleavage meets or surpasses 0.3.
false

Check if self-cleavage >= 0.3 (inclusive). Item: GGCCGGCAUGGUCCCACCCUCCUCGCUGGCGCCGGCUGGGCAACAUUCCGAGGGAACCGUCCCCUCGGUAAUGGCGAAUGGGACCCA [G17C G55A]
true

Item GGCCGGCAUGGUCCCAGCCUCCUCGCUGGCGCCGGCUGGGCAACAUUCCGAGGGGACCGUCACCUCGGUAAUGGCGACUGGGACCCA [C62A A78C] with self-cleavage of 0.3 or above?
false

Is reported self-cleavage greater than or equal to 0.3 here: GGCCGGCAUGGUCCCAGCCUCCUCGCUGGCGCCGGCUGGACAACAUUCCGAGGGGACAGUCCCCUCGGUAAUGGCGAAUGGGACCCA [G40A C58A]
true

Kindly determine if self-cleavage recorded for GGCCGGCAUGGUCCCAGCCUUCUCGCUGGCGCCGGCUGGGCAACAUUCCGAGGGGACCGUCCCCUCGGUGAUGGCGAAUGGGACCCA [C21U A70G] is above or exactly 0.3.
false

Given GGCCGGCAUGGUCCCAGCCUCCUCGCUGGAGCCGGCUGGGCAACAUUCCGCGGGGACCGUCCCCUCGGUAAUGGCGAAUGGGACCCA [C30A A51C] , state whether its self-cleavage is at least 0.3.
true

Hi, just wondering whether GGCCGGCAUGGUCCCAGCCUCCUUGCUGGCGCCGGCUGGGCAACAUGCCGAGGGGACCGUCCCCUCGGUAAUGGCGAAUGGGACCCA [C24U U47G] shows self-cleavage of 0.3 or higher.
false

Is self-cleavage for GGCCGGCAUGGUUCCAGCCUCCUCGCUGGCGCCGGCUGGGCAGCAUUCCGAGGGGACCGUCCCCUCGGUAAUGGCGAAUGGGACCCA [C13U A43G] at or above 0.3?
true

Check if self-cleavage >= 0.3 (inclusive). Item: GGCCGGCAUGGUCCCAGCUUCCUCGCUGGCGCCGGCUGGGCAACAUUGCGAGGGGACCGUCCCCUCGGUAAUGGCGAAUGGGACCCA [C19U C48G]
false

Item GGCCGGCCUGGUCCCAGCCUCCUCGCUUGCGCCGGCUGGGCAACAUUCCGAGGGGACCGUCCCCUCGGUAAUGGCGAAUGGGACCCA [A8C G28U] with self-cleavage of 0.3 or above?
false

Given the entry GGACGGCAUGGUCCCAGCCUCCUAGCUGGCGCCGGCUGGGCAACAUUCCGAGGGGACCGUCCCCUCGGUAAUGGCGAAUGGGACCCA [C3A C24A] , answer whether its self-cleavage meets or surpasses 0.3.
false

Check if self-cleavage >= 0.3 (inclusive). Item: GGCCGGCAUGGUCCCAGCCUCCUCAGUGGCGCCGGCUGGGCAACAUUCCGAGGGGACCGUCCCCUCGGUAAUGGCGAAUGGGACCCA [G25A C26G]
true

API: above_or_equal(metric=self-cleavage, cutoff=0.3) for item GGCCGGCAUGGUCCUAGCCUCCUCGCUGGCGCCGGCUGGGCAACAUUCCGAGGGGACCGUCCCCUCGGUAAUGGCAAAUGGGACCCA [C15U G76A]
true

Is the recorded value of self-cleavage equal to or greater than 0.3 for this variant? GGCCGGCAUGGUCCCAGCCUCCUCGCUGGUGCCGGGUGGGCAACAUUCCGAGGGGACCGUCCCCUCGGUAAUGGCGAAUGGGACCCA [C30U C36G]
false

Given the entry GGCCGGCAUGGUCCCAGCCUCCUCGCUGGCCCCGGCUGGGCAACAUUCCGAGGGGAACGUCCCCUCGGUAAUGGCGAAUGGGACCCA [G31C C57A] , answer whether its self-cleavage meets or surpasses 0.3.
false

Kindly determine if self-cleavage recorded for GGCCGGCAUGGUCCCAGCCUCCUCGCUGGCGCCGGCUGGGCAACAUUCCGAGGGGACUGUCCCCUCGGUAAUGGCGAAUGGGCCCCA [C58U A83C] is above or exactly 0.3.
true

# bool: self-cleavage of GGCCGGCAUGGUCCCAGCCUCCUCGCUGGCGCCGGCUGGGCAUCGUUCCGAGGGGACCGUCCCCUCGGUAAUGGCGAAUGGGACCCA [A43U A45G] >= 0.3
true

Reported self-cleavage reaches at least 0.3 for GGCCGGCAUGGUCCCAGCCUCCUCGCUGGCGCCGGCUGGGCAACAUUCCGAGGGGGCCGUCCCCUCGGUAAUGGCGAAUGGGACCCA [A56G] ?
true

Quick check: does GGCCGGCAUGGUCCCAGCCUCCUCGCUGGCGCCGGCUGGGAAACAUUCCGAGGGGACCGUCCCCUCGGUAAUGGCGAACGGGACCCA [C41A U79C] have self-cleavage greater than or equal to 0.3?
false

Exam item: decide whether the reported self-cleavage for GGCCGGCAUGGUCCCAGCCUCCUCGCUGGCGCCGGCUGGGCAACAUUCCGAGGGGACCAUCCCCUCGGUAAUGGCGAAUGGGACACA [G59A C85A] is at least 0.3.
true

Reported self-cleavage reaches at least 0.3 for GGCCGACAUGGUCCCAGCCUCCUCGCUGGCGCCGGCUGGGCAUCAUUCCGAGGGGACCGUCCCCUCGGUAAUGGCGAAUGGGACCCA [G6A A43U] ?
false

Hi, just wondering whether GGCCGUCAUGGUCCCAGCCUCCUCGCUGGCGCCGGCUGGGCAACAUUCCGAGGGGCCCGUCCCCUCGGUAAUGGCGAAUGGGACCCA [G6U A56C] shows self-cleavage of 0.3 or higher.
true

In plain terms: is recorded self-cleavage at least 0.3 for GGCCGGCAUGAUCCCAGCCUCCUCGCUGGCGCCGGCUGUGCAACAUUCCGAGGGGACCGUCCCCUCGGUAAUGGCGAAUGGGACCCA [G11A G39U] ?
false

Does the reported self-cleavage for GGCCGGCAUGGUCCCAGCCUCCUCGCUGGCGCCGGCUGGGCAACAUUCCGAGGGGACCGUCCCCUCGGUAAGGGCGAAUGGGGCCCA [U72G A83G] fall at or above the 0.3 mark?
true

Does the reported self-cleavage for GGCCGGCAUGGUCCCAGCCUCCUCGCUGGCGCCGGCUGGGCGACAUUCCGAGGGGACCCUCCCCUCGGUAAUGGCGAAUGGGACCCA [A42G G59C] fall at or above the 0.3 mark?
true

Tell me whether self-cleavage is at least 0.3 here: GUCCGGCAUGGUCCCAGCGUCCUCGCUGGCGCCGGCUGGGCAACAUUCCGAGGGGACCGUCCCCUCGGUAAUGGCGAAUGGGACCCA [G2U C19G]
false

Dear colleague, could you confirm whether GCCCGGCAUGGUCCCAGCCUCCUCGCUGGCGCCGGCUGGGCAACAUUCCGAGGGGACCGCCCCCUCGGUAAUGGCGAAUGGGACCCA [G2C U60C] has self-cleavage at or above 0.3?
false

Does the variant GGCCGGCAUGGUCCCAACCUCCUCGCUGGCGCAGGCUGGGCAACAUUCCGAGGGGACCGUCCCCUCGGUAAUGGCGAAUGGGACCCA [G17A C33A] have recorded self-cleavage that is 0.3 or more?
false

Quick check, self-cleavage >= 0.3? GGCCGGCAUGGUCCCAGCCUCCUCGCUGGCGCCGCCUGGGCAACAUUCCGAGGGGACCGUCCCCUCGGAAAUGGCGAAUGGGACCCA [G35C U69A]
true

Kindly determine if self-cleavage recorded for GGCCGGCAUGGUCCCAGCCUCCUCGCUGGCGCCGGCUGGGCAACAUUCCGAGGGGACCGUCCCCUCAGUAUUGGCGAAUGGGACCCA [G67A A71U] is above or exactly 0.3.
true

Reported self-cleavage reaches at least 0.3 for GGCCGGCAUGGUCCCAGCCUCCUCGCGGGCGCCGGCUGGGCAACAUGCCGAGGGGACCGUCCCCUCGGUAAUGGCGAAUGGGACCCA [U27G U47G] ?
true

Source: the RNAGym collection of RNA variant scans (doi:10.7554/elife.80360)
